Tested on: NCI-H226
experiment_description: NCI tumour cell line growth inhibition, 48 h
Activity calls are given as the source filed them. Rule as the data show it: active = GI50 up to about 1.1 µM and inactive = higher.
Permitted responses: active, inactive

Below, 3 compounds whose answers are already recorded.
{"compound": "COC1CCC(O)C(/C=C/[N+](=O)[O-])C1 (configuration not stated)", "class_assignment": "inactive"}
{"compound": "O=C(O)CCCNS(=O)(=O)c1ccc2ccccc2c1", "class_assignment": "inactive"}
{"compound": "COc1ccc(/C(=N/O)c2ccccc2-c2nc3ccccc3c(=O)n2-c2ccc(S(=O)(=O)Nc3ncccn3)cc2)cc1C", "class_assignment": "inactive"}

Check the results log: what was the call for CC(=O)OC(C)(C)/C=C/C(=O)[C@](C)(O)[C@H]1[C@H](O)C[C@@]2(C)[C@@H]3CC=C4[C@@H](C[C@H](O)[C@H](O)C4(C)C)[C@]3(C)C(=O)C[C@]12C ? active

What did the test return for CC(=O)Oc1cc(OC(C)=O)c2c(c1C)CC[C@@H]1[C@@H]2CC[C@]2(C)[C@@H](OC(C)=O)CC[C@@H]12 ? inactive

Can you look up the reported call for O=C(c1cccc(C(=O)c2ccc3c4c(cccc24)C(=O)N(c2ccccc2)C3=O)c1)c1ccc2c3c(cccc13)C(=O)N(c1ccccc1)C2=O for me? inactive

Could you kindly confirm the outcome this assay logged for CC[C@@]1(CCC(=O)NCCc2c[nH]c3ccccc23)CCC(=O)N2CCc3c([nH]c4ccccc34)[C@H]21 ? inactive

Please indicate how the test categorized C/C(O)=C1\CC2CN3CCc4c([nH]c5ccccc45)C3CC2CC1=O (configuration not stated) . inactive

What outcome does the record of this test show for CCc1cc2c(c3c1CCC3=O)CC1(Cc3ccc(C)cc3C1)C2 (configuration not stated) ? inactive

What outcome does the record of this test show for C=C(Cl)/C(=C/Cl)CCC(Br)C(C)(C)Cl.C=C(Cl)/C(=C\Cl)CCC(Br)C(C)(C)Cl (configuration not stated) ? inactive

What did this assay record as the result for COc1cc([C@@H]2c3cc4c(cc3[C@@H](OC3OC5COC(C)OC5C(O)C3O)[C@H]3COC(=O)[C@H]23)OCO4)cc(OC)c1O (some centres not stated) ? inactive

Query: recorded result category for COC(=O)C(Cc1cc(OC)c(OC)c(OC)c1)(NC(=O)c1ccccc1)P(=O)(OC)OC (configuration not stated) in this test inactive

Tell me the assay call for CCOP(=O)(OCC)/C(C#N)=C/c1cccn1N(C)C please. inactive

Called result for Cc1ccsc1/C=N/Nc1cc(C)c2cccc(C)c2n1 inactive

What did the test return for ClCCNCCNCCCl.ClCCNCCNCCCl.[O-][Cl+3]([O-])([O-])O ? inactive

Please let me know the test result on file for COc1ccc(NC2Oc3cc4c(cc3C(c3cc(OC)c(OC)c(OC)c3)C2C)OCO4)cc1 (configuration not stated) . active

Field: outcome | Entry: CS(=O)(=O)N(N(CCCl)S(=O)(=O)c1ccccc1)S(C)(=O)=O inactive

Record request — test call for COc1ccc(C2C3=C(CCCC3=O)N(c3ccccc3)C3=C2C(=O)CCC3)cc1 inactive

Outcome? O=c1ssc2c1Nc1c(ssc1=O)S2 inactive

Each compound tested received a call. Report the one for Nc1ncnc2c1ncn2CCCCC(=O)O . inactive

Name the outcome recorded for Oc1nc2c(c(-c3ccc(Br)cc3)n1)COC/C2=C\c1ccc(Br)cc1 in the assay. inactive

###

System: T47D
experiment_description: NCI tumour cell line growth inhibition, 48 h
Active and inactive are the calls of the source. Rule as the data show it: active = GI50 up to about 1.1 µM and inactive = higher.
The categories you may choose from are active, inactive

The examples below pair each entry with its known result.
{"molecule": "CC(=O)OC[C@H]1On2nnnc2[C@H](OC(C)=O)[C@@H](OC(C)=O)[C@@H]1OC(C)=O", "class_assignment": "inactive"}
{"molecule": "CCc1c2c(nc3ccc(O)cc13)-c1cc3c(c(=O)n1C2)COC(=O)[C@]3(O)CC [7-ETHYL-10-HYDROXYCAMPTOTHECIN]", "class_assignment": "active"}

What was the test verdict on Cc1ccc2nc(Cl)c(/C=N/N3C(=O)/C(=C/c4ccccc4S)N=C3c3ccccc3)cc2c1 ? inactive

Name the outcome recorded for [O-][Cl+3]([O-])([O-])[O-].[O-][Cl+3]([O-])([O-])[O-].c1ccn2c(N3CCOCC3)[n+]3c4ccccc4[n+]4c(N5CCOCC5)n5ccccc5c4c3c2c1 in the assay. inactive

Identify the outcome logged in this assay for the molecule shown: CCCCCCCCCCCCCCCCNC(=O)/C(O)=C/C(=O)c1ccc(C)cc1 inactive

Please indicate how the test categorized COc1ccc2oc(=N)c(C(=O)Nc3ccccc3)cc2c1 . inactive

###

Entries annotated with measured GI50
Tested on: MDA-MB-231
experiment_description: NCI tumour cell line growth inhibition, 48 h
Calls of active or inactive are those of the source. Rule as the data show it: active = GI50 up to about 1.1 µM and inactive = higher.

Solved cases (3 shown):
{"compound": "CC(C)(C)OC(=O)C1C(=O)NC(=O)CC1C(COCc1ccccc1)OCc1ccccc1 (stereo unspecified)", "GI50": "17.2 µM (inactive)"}
{"compound": "CN(C)c1ccc(/C=C2\\N=C(c3ccc([N+](=O)[O-])cc3)OC2=O)cc1", "GI50": "64.6 µM (inactive)"}
{"compound": "O=C1CCCC1CC(CN1CCOCC1)Sc1nnnn1-c1ccccc1 (stereo unspecified)", "GI50": "72.3 µM (inactive)"}

Answer with the recorded GI50 for the compound listed here: CC1=C(C(=S)Nc2ccc(Cl)c(C(=O)OC(C)C)c2)SCCO1 18.2 µM (inactive)

Identify the reported GI50 for the following entry. CC(O)(CCCCCl)c1nc2ccccc2s1 (stereo unspecified) 96.4 µM (inactive)

Identify GI50 associated with the compound CN(C)c1ccc(/C=C(\NC(=O)c2ccccc2)C2NC(Cc3c[nH]c4ccccc34)C(=O)O2)cc1 (stereo unspecified) > 50.4 µM (inactive)

Fill in GI50 for record CCOP(=O)(OCC)/C(C#N)=C/c1cccn1N(C)C > 100 µM (inactive)

Give the reported GI50 for this compound. CC(C)OC(=O)Nc1cccc(Cl)c1 > 100 µM (inactive)

Look up GI50 of COc1cc(-c2oc3ccccc3c(=O)c2O)cc(OC)c1OC and report it. 42.4 µM (inactive)

Give recorded GI50. Cc1csc2c(P(=O)(OC(C)C)OC(C)C)c(-c3ccccc3)cn12 17 µM (inactive)

Note GI50 for the compound shown: COc1cc2nc(-c3ccccc3F)nc(O)c2cc1OC > 100 µM (inactive)

###

Tested on: HOP-18
experiment_description: NCI tumour cell line growth inhibition, 48 h
The source made the active and inactive calls. No stated cut-off is given here; in the data, active = GI50 up to about 1.1 µM and inactive = higher.
Write down the outcome that applies. Available outcomes: active, inactive

Solved entries:
{"compound": "O=C(c1cc2c(C(F)(F)F)onc2c2ccccc12)C(F)(F)F", "class_assignment": "inactive"}
{"compound": "O=C1CCc2ccc(O)c(c2)Oc2ccc(cc2)[C@@H]2O[C@@H]2CO1", "class_assignment": "inactive"}
{"compound": "Cc1c(C(=O)CC(=O)C(=O)Nc2ccc(Cl)cc2)[n+]([O-])c2ccccc2[n+]1[O-]", "class_assignment": "inactive"}
{"compound": "O=C1c2ccccc2-c2ccccc2C(=O)C1(Br)Br", "class_assignment": "inactive"}
{"compound": "CC1OC(OC2CC(O)(C(=O)CO)Cc3c(O)c4c(c(O)c32)C(=O)c2ccccc2C4=O)CC(N)C1O (stereo not given)", "class_assignment": "active"}
{"compound": "O=C(O)CCCNS(=O)(=O)c1ccc2ccccc2c1", "class_assignment": "inactive"}

Per the records of this test, what outcome belongs to O=C(NC(=O)c1cc2cc(Br)cc(Br)c2oc1=O)Oc1ccccc1 ? inactive

What was the test verdict on CCCCCCCCCCCC[N+]12CC[N+](C)(CC1)CC2 ? inactive

What was the test verdict on CC(C)(C)N/N=C(\C(=O)Nc1nnc(S)[nH]1)C1C(=O)Nc2ccccc2[S+]1[O-] (stereo not given) ? inactive

How was CS(=O)(=O)N(N(CCCl)S(=O)(=O)c1ccccc1)S(C)(=O)=O classified in this test? inactive

###

A collection of compounds and their measured GI50
Tested on: TK-10
experiment_description: NCI tumour cell line growth inhibition, 48 h
Calls of active or inactive are those of the source. Rule as the data show it: active = GI50 up to about 1.1 µM and inactive = higher.

Field: example entries. Status: answers known.
{"compound": "CCOC(=O)c1c(NC(=O)c2ccc(OC)cc2)sc2c1CCCC2", "GI50": "> 100 µM (inactive)"}
{"compound": "C[C@]12CCc3nonc3C1CC[C@@H]1C2CC[C@]2(C)NC(=O)CCC12 (stereo partly specified)", "GI50": "> 100 µM (inactive)"}
{"compound": "Cc1ccc2nc(Cl)c(/C=N/N3C(=O)/C(=C/c4ccccc4S)N=C3c3ccccc3)cc2c1", "GI50": "48.6 µM (inactive)"}
{"compound": "Nc1nc2c(ncn2CCOC(c2ccccc2)P(=O)(O)O)c(=O)[nH]1 (stereo unspecified)", "GI50": "> 100 µM (inactive)"}
{"compound": "COc1ccc(C2C(Cl)C(=O)N2n2cnc3ccccc3c2=O)cc1 (stereo unspecified)", "GI50": "98.6 µM (inactive)"}
{"compound": "O=c1n(-c2ccccc2)c(=O)n2n1C1CCC2CC1", "GI50": "> 100 µM (inactive)"}
{"compound": "COc1cc(-c2oc3ccccc3c(=O)c2O)cc(OC)c1OC", "GI50": "29 µM (inactive)"}
{"compound": "COc1cc(/C=C2/SC(c3ccccc3)N(c3cccc([N+](=O)[O-])c3)C2=O)cc(OC)c1OC (stereo unspecified)", "GI50": "> 100 µM (inactive)"}

Supply GI50 value. Item: O=C1CC(O)c2c1csc2Br (stereo unspecified) 8.97 µM (inactive)

Tell us which GI50 value is on record for Cc1c(Cl)ccc2c1NC(=O)C2(O)CC(=O)c1ccc(Cl)cc1Cl (stereo unspecified) 30.5 µM (inactive)

Tell me measured GI50 for Cc1csc2c(P(=O)(OC(C)C)OC(C)C)c(-c3ccccc3)cn12 please. 11.5 µM (inactive)
